Recorded values, source ChEMBL document CHEMBL1126802.

Parameter Ki: see the listing below.
molecular target: 5-hydroxytryptamine receptor 1A (Rattus norvegicus, UniProt P19327); test: Displacement of radioligand [3H]2-(di-N-propylamino)-8-hydroxytetralin from 5-hydroxytryptamine 1A receptor in rat frontal cortex homogenate (experiment 1); format: tissue-based
Sequence (P19327 whole entry): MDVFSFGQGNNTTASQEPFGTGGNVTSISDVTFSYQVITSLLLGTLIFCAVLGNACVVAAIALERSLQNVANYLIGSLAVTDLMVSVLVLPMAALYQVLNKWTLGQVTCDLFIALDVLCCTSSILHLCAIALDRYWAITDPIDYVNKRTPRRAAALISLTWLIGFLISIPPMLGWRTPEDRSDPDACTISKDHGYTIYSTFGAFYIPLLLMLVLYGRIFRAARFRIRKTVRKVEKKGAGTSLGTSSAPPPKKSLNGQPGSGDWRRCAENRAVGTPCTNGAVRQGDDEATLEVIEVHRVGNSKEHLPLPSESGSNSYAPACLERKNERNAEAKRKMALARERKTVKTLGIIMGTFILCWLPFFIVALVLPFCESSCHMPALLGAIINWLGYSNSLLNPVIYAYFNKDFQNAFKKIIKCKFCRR
Record the value in nM, omitting the unit from your answer.

Entry under test: `CCCCCN1CCN(c2cccc(Cl)c2)CC1` . Its Ki was 7.8

Then this compound:
Entry under test: `Clc1cccc(N2CCNCC2)c1` . Its Ki was 200

###

biological target: Opioid receptor (Mus musculus, UniProt P42866+P32300+P33534); test: Tested for displacement of radioligand [3H]-Naloxone from opiate receptor; assay type: protein assay
IC50 class ranges: bin 0 (below 0.9 µM), bin 1 (0.9 µM to below 50 µM), bin 2 (50 µM or more)

Take a look at these entries with their results.
Ask: Which IC50 category applies to `CCCCCCCN1CCC(C(=O)OCC)(c2ccccc2)CC1` here?
Reply: bin 0

Ask: Which IC50 category applies to `CCC(=O)C1(c2cccc(O)c2)CCN(CC)CC1` here?
Reply: bin 2

Ask: Which IC50 category applies to `CCCCCCCCCCN1CCC(C(=O)CC)(c2cccc(O)c2)CC1` here?
Reply: bin 2

Ask: Which IC50 category applies to `CCCCCCN1CCC(C(=O)OCC)(c2ccccc2)CC1` here?
Reply: bin 0

Ask: Which IC50 category applies to `CCCCCN1CCC(C(=O)CC)(c2cccc(O)c2)CC1` here?
Reply: bin 1

---
Ask: Which IC50 category applies to `CCCN1CCC(C(=O)CC)(c2cccc(O)c2)CC1` here?
Reply: bin 2

Ask: Which IC50 category applies to `CCCCCN1CCC(C(=O)OCC)(c2ccccc2)CC1` here?
Reply: bin 0

Ask: Which IC50 category applies to `CCCN1CCC(C(=O)OCC)(c2ccccc2)CC1` here?
Reply: bin 1

Ask: Which IC50 category applies to `CCCCCCCCCN1CCC(C(=O)CC)(c2cccc(O)c2)CC1` here?
Reply: bin 2

Ask: Which IC50 category applies to `CCCCCCCCN1CCC(C(=O)CC)(c2cccc(O)c2)CC1` here?
Reply: bin 2

Ask: Which IC50 category applies to `CCCCCCCCCN1CCC(C(=O)OCC)(c2ccccc2)CC1` here?
Reply: bin 0

Ask: Which IC50 category applies to `CCCCCCN1CCC(C(=O)CC)(c2cccc(O)c2)CC1` here?
Reply: bin 1
